B1: tRNA (parent)
chain: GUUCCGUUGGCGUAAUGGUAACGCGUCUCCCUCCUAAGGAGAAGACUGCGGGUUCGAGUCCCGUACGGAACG

Variants of: B1
Assay: yeast fitness relative to wild type (ratio to wild type); higher = fitter; tRNA-Arg(CCU), competitive growth, 37 C, YPD
Variants at the floor of the assay were thinned out.
Assignment: determine reported yeast fitness for the given variants.
// keep it numeric: no unit symbol after the value

What value of yeast fitness has been reported for the following variant? GUUCCGUUGGCGUAAUGGUAACGCGUCUCCCUCCUAAGAAGAAGACUGCGGGUUCGAGUCCCGCACGGAACG
1.01

// same read-out, input: GUUCGGUUGGGGUAAUGGUAACGCGUCUCCCUCCUAAGGAGAAGACUGCGGGUUCGAGUCCCGUACGGAACG
0.614

// same read-out, input: GUUCCGUUGGCGUAAUGGUAACGCGUCUCCCUCCGAAGGAGAAGACUGCGGGUUCGAGUCCCGUACGGACCG
0.711

// same read-out, input: GUUCCGUUAGCGUAAUGGUAACGCGUCUCCCUUCUAAGGAGAAGACUGCGGGUUCGAGUCCCGUACGGAACG
0.897

// same read-out, input: GUUCCGUUGGCGUAAUGGUAACGCGUCUCCCUCCUAACGAGAAGACUGCGGGUUCCAGUCCCGUACGGAACG
0.516

// same read-out, input: GUUCCGUUGGGGUAAUGGUAACGCGUUUCCCUCCUUAGGAGAAGACUCUGGGUUCGAGUCCCGUACGGAACG
0.717

// same read-out, input: GUUCCGGUGGCGUAAUGGUAACGCGUCUCCCUCCUAAGGAGAAGACUGCGGGUUGGAGUCCCGUACGCAACG
0.6

// same read-out, input: GUUCCGUUGGCGUAAUGGUAAUGCAUCUCCCUCCUAAGGAGAAGACUGCGGGUUCGAGUCCCGUUCGGAACG
0.687

// same read-out, input: GUUCCGUUGGCGUACUGGUAACGCGUCUCCCUCCUAAGGAGAAGACUGCGGGUUGGAGUCCCGUACGGAACG
0.593

// same read-out, input: GUUUCGUUGGCGUAAUGGUAACGCGUCUCCCUCCUAAGGAGAAGACUGCGGGUUCGAGUCCCGUACCGAACG
0.829

// same read-out, input: GUUCCGUUGGCGUAAUGGUAACGCGUCUCCCUCCUAAGGAGAAGACAGCGGGUCCGAGUCCCGUACGGAACG
0.811

// same read-out, input: GCUCCGUUGGCGUAAAGGUAACGCGUCUCCCUCCUAACGAGAAGACUGCGGGUUCGAGUCCCAUACGGAACG
0.552

// same read-out, input: GUUCCGUUAGCGUAAUGGUAACGCGGCUCCCUCCUAAGGAGAAGACUGCGGGUUCGUGUCCCGUACGGAACG
0.631

// same read-out, input: GUUCCGUUGGCGUAAUGGUAACGCGUCUCCAUCCUAUGGAGAAGACUGCGGGUUCGAGUCCCGUACCGAACG
0.575

// same read-out, input: GUUCCGUUGGCAUAAUGGUAAGGCGUCUCCCUCCUAAGGAGAAGACUGCGGGUUCGAGUCCCGUACGGAACG
1

// same read-out, input: GUUCCGUUGCCGUAAUGGUAACGCGUCUCCCUCCUAAGGAGAAGACUGCGGGUUCGAGUCCCGUUCGGAACG
0.767

// same read-out, input: GUACCGUUGGCGUAAUGGUAACGCGUCUCCCUCCUAAGGAGAAGACUGCGGGUUCGAGUCCCGUACGGUACG
0.999

// same read-out, input: GUUCCGUUGGCGUAAUGGUAACGCGUCUCACUCGUAAGGAGAAGACUGCGGGUUCGAGUCCCGUACGGAACG
0.682

// same read-out, input: GUUCCGUUGGCGUAAUGGUAACGCGUCUCCCUCCUAAGGAGAAGACUGCGCGUUCGAGUCGCGUACGGACCG
0.542

// same read-out, input: GUUCCGUUGGCGUAAUGGUAACGCGUCUCCCUCCUACGGAGAAGACUGCGGGUUCGAGUCCCGUACGGCACG
0.865

// same read-out, input: GUUCCGUUGGCGUAAUGCUAACGCGUCUCCCUCCUAAGGAGAAGACUACGGGUUCGAGUCCCGUAUGGAACG
0.545

// same read-out, input: GUACCGUAGGCGUAAUGGUAACGCGUCUCCGUCCUAAGGCGAAGACUGCGGGUUCGAGUCCCGUACGGAACG
0.563

// same read-out, input: GUUCCGAUGGCGUAAUGGUAACGCGUCUCCCUCCUAAGGAGAAGCCUGCGGGUUCGAGUCCCGUACGGAACG
0.737

// same read-out, input: GUUCCGUUGGCGUAAUGGUAAUGCGUCUCCCUCCUAAGGAGUAGACUGCGCGUUCGAGUCCCGUACGGAACG
0.647

// same read-out, input: GCUCCAUUGGCGUAAUGGUAACGCGUCUCCUUCCUAAGGAGAAGACUGUGGGUUCGAGUCCCGUACGGAACG
0.641

// same read-out, input: GUUCCGUUGGCGUUAUGGUAACGCGUCUCCCUCCUAAGGAGCAGACUGCGGGUUCGAGUCCCGUACGGAACG
0.639

// same read-out, input: GUUCCGUUGGCGUAAUGGUAACGCGUCUCCCUCCUAAGGAGAAGACUGCGGGUUCGAAUCCGGUACGGAACG
1.14

// same read-out, input: GUUCCGUUGGCGGAAUGGUAACGCGUCUCCCUCCUAAGGAGAGGACUGCGGGUUCGAGUCCCGUACGGAACG
0.902

// same read-out, input: GUUCCGUUGGCGUAAUGGCCACGCGUCUCCCUCCUAAGGAGAAGACUGCGGGUUCGAGUCCCGUACGGAACG
0.805

// same read-out, input: GUUCCGUUGGCGUAAUGGUAUCCCGUCUCCCUCCUAAGGAGAAGACUGCGGGUUCGAGUCCCGUACGGAACG
0.579

// same read-out, input: GUUCGGUUGGCGUAAUGGUAUCACGUCUACCUCCUAUGGAGAAGACUGCGGGUUCGGGUCUCGUACGGAACG
0.541

// same read-out, input: GUGCCGUUGGCGUAAUGGUAACGCGUCUCCCUCCUAAGGAGAACACUGCGGGUUCGAGUCCCGUACGGAACG
0.739

// same read-out, input: GUUACGUUGGCGUAAUGGUAACGCGUCUCCCUCCUAAGGAGAAGACUGCGGGUGCGAGUCCCGUACGGAACG
0.612

// same read-out, input: GUUCCGUUGGCGUAGUGGUAACGCGUCUCCCUCCUAAGCAGAAGACUGCGGGUUCGAGUCCCGUACGGAACG
0.736

// same read-out, input: GUUCAGUUGGCGUAAUAGUAACGCGUCUCCCUCCUAAGGAGAACACUGCGGGUUCGAGUCCCGUACGGAACG
0.532

// same read-out, input: GUACCGUUGGCGUAAUGGUAACGCGUAUCCCUCCUAAGGAGAAGACUGCGGGUUCGAGUCCCGUACGGUACG
0.627

// same read-out, input: GUUCCGUUGGCGUAAUGGUAAAGCGUCUCCCUCCUAAGGAGAAGACAGCGGGUUCGAGUCCCGUACGGAGCG
0.577

// same read-out, input: GUUCCGUUGGCGUAAUGGUAAAGCGUCUCCCUCCUAAGGAGAAGACUGCGGGUUCGAGUCCCGUACGGAUCG
1.01

// same read-out, input: GUUCCGUUGGCGUAAUGGUAACGCGUCUCCCUUCUAAGGAGGAGAAUGCGGGUUCGAGUCCCGUACGGAACG
0.644

// same read-out, input: GUUACGUUGGCGUAAUGGUACUGCGUCUCCCUCCUAAGGAGAAGACUGCGGGUUCGAGUCCCGUACGGAACG
0.651

// same read-out, input: GUUCCGUUGGCGUAAUGGUAACGCGUCUCCCUCCUAAGGAAAAGACCGCGGGUUCGAGUCCCGUACGGAACG
0.931

// same read-out, input: GUUCCGUUGGCGUAAUGGUAACGCGUCUCCCUCCUAAGGAGAAGACUCCGGGUUCGAGUCCCGUACGGAUCG
1

// same read-out, input: GUUCCGUUGGCGUAAUGGUAACGCGUCUCCCUCCUAAGGAGAAGACUGGGGGUUCGAGUCCCCUACGUAACG
0.522
